The following compounds are listed with their measured pEC50 values.
# Target Entity: Glucose-dependent insulinotropic receptor (Homo sapiens)
# Sequence (Q8TDV5 whole entry): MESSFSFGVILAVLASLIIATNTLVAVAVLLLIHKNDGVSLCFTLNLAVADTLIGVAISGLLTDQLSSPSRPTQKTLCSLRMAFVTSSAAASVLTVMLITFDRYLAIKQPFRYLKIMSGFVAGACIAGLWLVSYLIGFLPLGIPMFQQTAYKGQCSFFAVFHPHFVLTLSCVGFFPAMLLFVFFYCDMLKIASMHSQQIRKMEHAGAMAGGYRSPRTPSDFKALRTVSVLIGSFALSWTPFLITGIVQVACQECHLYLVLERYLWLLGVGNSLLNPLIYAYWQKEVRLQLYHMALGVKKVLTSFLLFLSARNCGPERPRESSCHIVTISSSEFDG
# Assay Remarks: Agonist activity at human GPR119 expressed in HEK293 cells assessed as cAMP accumulation after 60 mins
pEC50: −log10 of the molar value.

# example entries with known answers
[
  {
    "Compound": "COc1cc2nc(Nc3ccc(S(C)(=O)=O)cc3)nc(N3CCC4CCC(C3)N4C(=O)OC(C)(C)C)c2cc1OC (racemic)",
    "Target Entity": "Glucose-dependent insulinotropic receptor (Homo sapiens)",
    "Reported Value": "< 5.00"
  },
  {
    "Compound": "COc1cc2nc(OCC3CCN(C(=O)OC(C)(C)C)CC3)nc(Nc3ccc(S(C)(=O)=O)cc3F)c2cc1OC",
    "Target Entity": "Glucose-dependent insulinotropic receptor (Homo sapiens)",
    "Reported Value": "< 5.00"
  }
]

I am curious: what pEC50 value has been reported for COc1cc2nc(Nc3ccc(S(C)(=O)=O)cc3)nc(NCC3CC4CCC(C3)N4C(=O)OC(C)(C)C)c2cc1OC (stereo not drawn) ?
< 5.00
